# Experiment description: Plasma concentration in CD1 mouse model of formalin-induced nociception at 3 mg/kg, po
# Type: ADME, organism-based
# Condition set: read-out: Cp, in vivo
Assay endpoint: concentration (nM)
Write the number in nM without appending the unit.

Param item = CC(C)COc1ncc(-c2nn(C)c3cc(C(=O)NS(C)(=O)=O)ccc23)cc1Cl ; retrieve measured concentration.
280

* * *

# Experiment description: Metabolic stability in human liver microsomes assessed as parent compound remaining at 0.5 uM after 10 mins
# Assay type: ADME, Microsome
# Condition set: read-out: Stability
# remaining at 10 min, 0.5 µM per entry
Express your answer in %, writing the number without its unit.

Some compounds with recorded remaining at 10 min, 0.5 µM:
Cn1cc(-c2ccc(C(F)(F)F)cc2)c2ccc(C(=O)NS(=O)(=O)C3CC3)cc21 :: 87
Cn1nc(-c2ccc(C(F)(F)F)cc2)c2cc(F)c(C(=O)NS(=O)(=O)C3CC3)cc21 :: 100
CC(C)COc1ccc(-c2nn(C)c3cc(C(=O)NS(=O)(=O)C4CC4)c(F)cc23)cn1 :: 91
Cn1cc(-c2cnc(OCC3CC3)c(Cl)c2)c2ccc(C(=O)NS(=O)(=O)C3CC3)cc21 :: 97

Report remaining at 10 min, 0.5 µM for CC(C)COc1ccc(-c2cn(C)c3cc(C(=O)NS(C)(=O)=O)c(F)cc23)cn1 please.
98

What measured remaining at 10 min, 0.5 µM goes with CC(C)COc1ncc(-c2cn(C)c3cc(C(=O)NS(C)(=O)=O)ccc23)cc1Cl ?
95

Which remaining at 10 min, 0.5 µM is reported for this compound? CC(C)Cc1ccc(-c2cn(C)c3cc(C(=O)NS(C)(=O)=O)ccc23)cc1
100

Entry Cn1cc(-c2ccc(C(F)(F)F)cc2)c2cc(F)c(C(=O)NS(=O)(=O)C3CC3)cc21 has what remaining at 10 min, 0.5 µM?
100

What value of measured remaining at 10 min, 0.5 µM is listed for Cn1cc(-c2ccc(C(F)(F)F)cc2)c2ccc(C(=O)NS(C)(=O)=O)cc21 ?
100

Record request: remaining at 10 min, 0.5 µM value, item CC(C)COc1ncc(-c2cn(C)c3cc(C(=O)NS(C)(=O)=O)c(F)cc23)cc1Cl
100

* * *

# Measured on: Sodium channel protein type 4 subunit alpha (Homo sapiens, UniProt P35499)
# Sequence (P35499 whole entry): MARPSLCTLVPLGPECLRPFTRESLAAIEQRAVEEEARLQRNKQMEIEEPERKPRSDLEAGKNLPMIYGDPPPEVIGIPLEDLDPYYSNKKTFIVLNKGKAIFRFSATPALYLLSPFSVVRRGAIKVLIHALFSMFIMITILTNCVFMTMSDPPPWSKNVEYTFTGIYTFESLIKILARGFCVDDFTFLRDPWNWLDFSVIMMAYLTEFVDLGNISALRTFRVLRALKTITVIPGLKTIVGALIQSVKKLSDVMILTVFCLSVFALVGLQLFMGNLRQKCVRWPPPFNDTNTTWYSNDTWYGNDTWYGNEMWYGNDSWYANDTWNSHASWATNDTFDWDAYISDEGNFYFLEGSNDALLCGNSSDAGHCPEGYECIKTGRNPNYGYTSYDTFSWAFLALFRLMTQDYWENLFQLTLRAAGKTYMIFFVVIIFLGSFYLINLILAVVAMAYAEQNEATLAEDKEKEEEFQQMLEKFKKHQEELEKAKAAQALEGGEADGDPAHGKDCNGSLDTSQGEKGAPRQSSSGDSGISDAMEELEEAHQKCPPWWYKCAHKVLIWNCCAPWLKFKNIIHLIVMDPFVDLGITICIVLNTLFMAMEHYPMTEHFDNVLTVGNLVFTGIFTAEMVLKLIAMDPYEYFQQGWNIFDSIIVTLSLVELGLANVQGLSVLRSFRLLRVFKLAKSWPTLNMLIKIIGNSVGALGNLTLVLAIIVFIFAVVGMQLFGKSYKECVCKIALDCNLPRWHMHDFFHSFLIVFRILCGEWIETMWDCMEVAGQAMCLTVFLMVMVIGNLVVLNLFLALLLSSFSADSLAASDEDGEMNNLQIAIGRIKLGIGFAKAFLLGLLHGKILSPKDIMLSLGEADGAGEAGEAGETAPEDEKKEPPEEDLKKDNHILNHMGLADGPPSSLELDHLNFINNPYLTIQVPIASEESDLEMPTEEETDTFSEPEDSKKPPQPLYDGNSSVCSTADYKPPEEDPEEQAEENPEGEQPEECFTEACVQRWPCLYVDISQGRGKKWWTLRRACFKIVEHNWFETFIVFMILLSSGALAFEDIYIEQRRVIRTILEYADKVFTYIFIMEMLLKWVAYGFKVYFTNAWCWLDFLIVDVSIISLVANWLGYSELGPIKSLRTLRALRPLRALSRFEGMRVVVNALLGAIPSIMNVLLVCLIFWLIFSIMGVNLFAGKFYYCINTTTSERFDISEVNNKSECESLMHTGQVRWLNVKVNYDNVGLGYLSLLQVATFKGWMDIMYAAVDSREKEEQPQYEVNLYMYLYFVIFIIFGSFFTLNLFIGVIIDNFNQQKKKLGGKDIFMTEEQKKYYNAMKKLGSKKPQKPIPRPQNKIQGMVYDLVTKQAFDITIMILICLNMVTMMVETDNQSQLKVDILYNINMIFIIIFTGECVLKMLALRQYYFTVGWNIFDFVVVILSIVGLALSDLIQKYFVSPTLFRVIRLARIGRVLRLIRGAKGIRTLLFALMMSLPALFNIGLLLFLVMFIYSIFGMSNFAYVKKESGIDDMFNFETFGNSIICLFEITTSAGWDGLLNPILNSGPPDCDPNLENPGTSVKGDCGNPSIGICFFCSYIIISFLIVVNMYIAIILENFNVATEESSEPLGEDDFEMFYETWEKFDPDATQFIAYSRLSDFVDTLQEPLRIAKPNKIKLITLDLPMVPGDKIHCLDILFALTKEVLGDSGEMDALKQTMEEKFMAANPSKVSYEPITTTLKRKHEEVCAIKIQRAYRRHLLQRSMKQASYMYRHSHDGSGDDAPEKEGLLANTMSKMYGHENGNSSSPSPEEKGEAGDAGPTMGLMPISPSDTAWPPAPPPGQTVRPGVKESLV
# Experiment description: Inhibition of human Nav1.4 expressed in HEK293 cells after 600 secs at -60 mV holding potential by ion works barracuda population patch clamp method
Assay endpoint: IC50 (µM)
Reply with just the number (in µM).

Query: IC50; subject: CC(C)COc1ncc(-c2cn(C)c3cc(C(=O)NS(C)(=O)=O)ccc23)cc1Cl
4.8

* * *

Below: a set of entries, each annotated with reported Papp A→B.
# Experiment description: Permeability from apical to basolateral side in human Caco2 cells
# Type: ADME, cell-based
# Condition set: Caco-2, read-out: permeability

Consider the worked cases shown below.
Cn1nc(-c2ccc(C(F)(F)F)cc2)c2cc(F)c(C(=O)NS(=O)(=O)C3CC3)cc21 :: < 1.5 ×10⁻⁶ cm/s
CC(C)COc1ncc(-c2cn(C)c3cc(C(=O)NS(C)(=O)=O)ccc23)cc1Cl :: < 1.5 ×10⁻⁶ cm/s

We now examine a further compound.
# lookup: Papp A→B of Cn1cc(-c2ccc(C(F)(F)F)cc2)c2cc(F)c(C(=O)NS(=O)(=O)C3CC3)cc21
4.6 ×10⁻⁶ cm/s

* * *

# Experiment description: Fraction unbound in rat DRG neurons
# Type: ADME
Assay endpoint: fraction unbound
Could you keep your reply to the number by itself?

Any idea what fraction unbound was measured for CC(C)COc1ccc(-c2cn(C)c3cc(C(=O)NS(C)(=O)=O)c(F)cc23)cn1 ?
0.039

* * *

Documented concentration across a set of compounds
# Experiment description: Drug uptake in DRG neurons of CD1 mouse model of formalin-induced nociception at 30 mg/kg, po
# Type: ADME, organism-based, DRG neuron
# Condition set: in vivo, read-out: Drug uptake
Write it as a number; the unit nM goes unstated.

Some compounds with recorded concentration:
CC(C)COc1ncc(-c2cn(C)c3cc(C(=O)NS(=O)(=O)C4CC4)c(F)cc23)cc1Cl :: 11000
CC(C)COc1ccc(-c2cn(C)c3cc(C(=O)NS(C)(=O)=O)c(F)cc23)cn1 :: 990

Moving on to the next compound.
Query (compound): O=S(=O)(Nc1nccs1)c1cc(Cl)c(NCC23CCCN2CCC3)cc1F ; field requested: concentration
340

* * *

# Experiment description: Unbound plasma concentration in CD1 mouse model of formalin-induced nociception at 30 mg/kg, po
# Format: ADME, organism-based
# Condition set: in vivo
Assay endpoint: Cp(f) (nM)
Respond numerically; units are nM and should not be typed.

Examples from the recorded data:
CC(C)COc1ccc(-c2cn(C)c3cc(C(=O)NS(=O)(=O)C4CC4)c(F)cc23)cn1 :: 792
CC(C)COc1ccc(-c2cn(C)c3cc(C(=O)NS(C)(=O)=O)c(F)cc23)cn1 :: 616
O=S(=O)(Nc1nccs1)c1cc(Cl)c(NCC23CCCN2CCC3)cc1F :: 340
CC(C)COc1ncc(-c2cn(C)c3cc(C(=O)NS(=O)(=O)C4CC4)c(F)cc23)cc1Cl :: 116
Cn1cc(-c2ccc(C(F)(F)F)cc2)c2cc(F)c(C(=O)NS(=O)(=O)C3CC3)cc21 :: 490

GET /values?readout=Cp(f)&item= Cn1cc(-c2ccc(C(F)F)cc2)c2cc(F)c(C(=O)NS(=O)(=O)C3CC3)cc21
1211

* * *

# Experiment description: Fraction unbound in human plasma
# Type: ADME, cell-free
Checkbox rule: fraction unbound lower than 0.003 = Criterion met; fraction unbound not lower than 0.003 = Criterion not met.

CC(C)COc1ncc(-c2cn(C)c3cc(C(=O)NS(C)(=O)=O)c(F)cc23)cc1Cl :: Criterion met
CC(C)COc1ccc(-c2cn(C)c3cc(C(=O)NS(C)(=O)=O)c(F)cc23)cn1 :: Criterion not met

Just wondering, is fraction unbound of CC(C)COc1ccc(-c2cn(C)c3cc(C(=O)NS(=O)(=O)C4CC4)c(F)cc23)cn1 below 0.003?
Criterion not met

Report whether reported fraction unbound is lower than 0.003 (strictly) for Cn1cc(-c2ccc(C(F)(F)F)cc2)c2cc(F)c(C(=O)NS(C)(=O)=O)cc21
Criterion met

Is the reported fraction unbound for Cn1cc(-c2cnc(OCC3CC3)c(Cl)c2)c2ccc(C(=O)NS(=O)(=O)C3CC3)cc21 strictly below 0.003?
Criterion met

A record lists CC(C)Cc1ccc(-c2cn(C)c3cc(C(=O)NS(C)(=O)=O)ccc23)cc1 . Is its fraction unbound below 0.003?
Criterion met

# strict comparison: is reported fraction unbound < 0.003? input = Cn1cc(-c2ccc(C(F)(F)F)cc2)c2ccc(C(=O)NS(=O)(=O)C3CC3)cc21
Criterion met

A record lists CC(C)COc1ncc(-c2cn(C)c3cc(C(=O)NS(=O)(=O)C4CC4)c(F)cc23)cc1Cl . Is its fraction unbound below 0.003?
Criterion met

Strictly below 0.003: is that where fraction unbound of Cn1cc(-c2ccc(C(F)(F)F)cc2)c2ccc(C(=O)NS(C)(=O)=O)cc21 sits?
Criterion met

Could you please tell me whether fraction unbound recorded for CC(C)COc1ncc(-c2cn(C)c3cc(C(=O)NS(C)(=O)=O)ccc23)cc1Cl is less than 0.003?
Criterion met

For Cn1cc(-c2ccc(C(F)(F)F)cc2)c2cc(F)c(C(=O)NS(=O)(=O)C3CC3)cc21 , is the recorded fraction unbound below the cut-off of 0.003?
Criterion met

* * *

# Experiment description: Drug uptake in DRG neurons of CD1 mouse model of formalin-induced nociception at 30 mg/kg, ip
# Type: ADME, organism-based, DRG neuron
# Condition set: in vivo, read-out: Drug uptake
Assay endpoint: concentration (nM)
# value in nM; strip the unit string

What does the data say about its concentration? Entry: CC(C)COc1ncc(-c2cn(C)c3cc(C(=O)NS(C)(=O)=O)ccc23)cc1Cl
2720

* * *

# Experiment description: Efflux ratio of permeability in human Caco2 cells
# Assay type: ADME, cell-based
# Condition set: Caco-2
# 1 = efflux ratio below 3 (exclusive); 0 = efflux ratio at/above 3

The examples below pair each entry with its known result.
CC(C)Cc1ccc(-c2cn(C)c3cc(C(=O)NS(C)(=O)=O)ccc23)cc1 :: 0
Cn1cc(-c2ccc(C(F)F)cc2)c2cc(F)c(C(=O)NS(=O)(=O)C3CC3)cc21 :: 1
CC(C)COc1ccc(-c2cn(C)c3cc(C(=O)NS(=O)(=O)C4CC4)c(F)cc23)cn1 :: 1

Proceed to the following item.
Criterion: efflux ratio strictly below 3. Is it met by Cn1cc(-c2ccc(C(F)(F)F)cc2)c2cc(F)c(C(=O)NS(C)(=O)=O)cc21 ?
0
